Test system: MCF7
assay explanation: Cytotoxicity against human MCF7 cells assessed as cell viability at 30 uM incubated for 72 hrs by SRB assay relative to control
Assay type: functional
experimental context: read-out: Activity
Quick reference for viability at 30 µM among some molecules
Number in %, nothing else.

Cc1ccc2c(c1)Cc1c(nc(-c3ccccc3)[nH]c1=O)O2; 73.1
COc1ccc2c(c1)Cc1c(nc(-c3ccccc3OC)[nH]c1=O)O2; 70.4
COc1cccc2c1Oc1nc(-c3ccccc3)[nH]c(=O)c1C2; 88.5
COc1ccc2c(c1)C=C1C(=O)NC(c3c(OC)cc(OC)cc3OC)N=C1O2 (stereo unspecified); 100
COc1ccccc1-c1nc2c(c(=O)[nH]1)Cc1cccc(OC)c1O2; 54.8

# input Field request: viability at 30 µM | item: COc1cccc2c1C(=O)c1c(O)c3c(c(O)c1C2=O)C[C@@](O)(C(=O)CO)C[C@@H]3O[C@H]1C[C@H](N)[C@H](O)[C@H](C)O1
# output 28.8

# input Which measured viability at 30 µM value corresponds to COc1ccc(OC)c(-c2nc3c(c(=O)[nH]2)Cc2cccc(OC)c2O3)c1 ?
# output 76.6

* * *

viability at 30 µM for assorted molecules
System: MCF7
assay explanation: Cytotoxicity against human MCF7 cells assessed as cell viability at 30 uM incubated for 72 hrs by SRB assay relative to control
Format: functional
experimental context: read-out: Activity
Note: unit % is implicit; provide only the numeric part.

A selection of reference data follows.
COc1cccc2c1Oc1nc(-c3ccc(C)cc3)[nH]c(=O)c1C2; 77.2
COc1ccccc1-c1nc2c(c(=O)[nH]1)Cc1cc(Cl)ccc1O2; 57.3
COc1cc(OC)c(C2N=C3Oc4ccc(Br)cc4C=C3C(=O)N2)c(OC)c1 (centres undefined); 76.2

# input What viability at 30 µM value was documented for this molecule, N#CC1=C(/N=C/Nc2ccccc2)Oc2ccc(Br)cc2C1CC(=O)c1ccccc1 (centres undefined) ?
# output 37.9

* * *

Test system: MDA-MB-231
assay explanation: Cytotoxicity against human MDA-MB-231 cells assessed as cell viability at 30 uM incubated for 72 hrs by SRB assay relative to control
Assay type: functional
experimental context: read-out: Activity
# reported viability at 30 µM; entries follow
Answer with a number only, understood to be in %.

COc1ccc2c(c1)C=C1C(=O)NC(c3c(OC)cc(OC)cc3OC)N=C1O2 (stereo not drawn); 78.5
Brc1ccc2c(c1)-c1cc(-c3ccccc3)nc3c1C(N=CN3c1ccccc1)O2 (stereo not drawn); 40.5

# input Consider the molecule COc1ccccc1-c1nc2c(c(=O)[nH]1)Cc1cccc(OC)c1O2 and give its measured viability at 30 µM.
# output 63.6

* * *

System: MCF7
assay explanation: Cytotoxicity against human MCF7 cells assessed as cell viability at 30 uM incubated for 72 hrs by SRB assay relative to control
Assay type: functional
experimental context: read-out: Activity
property measured: viability at 30 µM (%)
Unit % implied. Number only.

See these solved cases before continuing.
Cc1cccc2c1Oc1nc(-c3ccccc3)[nH]c(=O)c1C2; 23.8
COc1cccc2c1Oc1nc(-c3ccc(F)cc3)[nH]c(=O)c1C2; 82.9
COc1cccc2c1Oc1nc(-c3ccco3)[nH]c(=O)c1C2; 100
COc1cccc2c1OC1=NC(c3ccc4c(c3)OCO4)NC(=O)C1=C2 (centres undefined); 82.1
COc1cccc2c1Oc1nc(-c3ccccc3Cl)[nH]c(=O)c1C2; 58.2
CCC(CC)C1N=C2Oc3c(cccc3OC)C=C2C(=O)N1 (centres undefined); 84.8
COc1ccc(OC)c(-c2nc3c(c(=O)[nH]2)Cc2cc(Cl)ccc2O3)c1; 62.6
COc1cccc(-c2nc3c(c(=O)[nH]2)Cc2cc(OC)ccc2O3)c1; 49.8

# input Recorded viability at 30 µM for COc1cccc(-c2nc3c(c(=O)[nH]2)Cc2cc(Cl)ccc2O3)c1 with MCF7, please?
# output 35.4

# input Query viability at 30 µM on MCF7 for COc1cccc2c1Oc1nc(-c3cccc(Br)c3)[nH]c(=O)c1C2
# output 52.4

# input So what viability at 30 µM did O=c1[nH]c(-c2ccccc2)nc2c1Cc1cc(Br)ccc1O2 get with MCF7?
# output 36.7

# input Notebook: pull reported viability at 30 µM for MCF7, entry COc1cc(OC)c(C2N=C3Oc4c(cccc4OC)C=C3C(=O)N2)c(OC)c1 (centres undefined)
# output 91.8

# input Identify the measured viability at 30 µM of O=c1[nH]c(-c2ccc3c(c2)OCO3)nc2c1Cc1cc(Br)ccc1O2 for MCF7.
# output 83.1

# input Can you look up viability at 30 µM on MCF7 for COc1ccc2c(c1)Cc1c(nc(-c3cc(OC)ccc3OC)[nH]c1=O)O2 ?
# output 57.8
